Hey, just so you know, these numbers are from patent US20230181580A1.

- TARGET_UNDER_TEST: CDK2/A (Homo sapiens, UniProt P24941)
- ASSAY_REMARKS: CDK kinase inhibition assay (radiometric / ADP Glo)
METRIC: pKi
Schema: pKi number; meaning minus log10 of the concentration expressed in molar units.

Q) Assign pKi to the following record: CNc1nc(C)c(-c2nc(Nc3ccc(N4CCC(N)CC4)cn3)ncc2F)s1
A) 6.69

Q) Assign pKi to the following record: Cc1nc(NC2CCCC2)sc1-c1ccnc(Nc2ccc(N3CCC(N)CC3)cn2)n1
A) 6.56

Q) Assign pKi to the following record: CCN1CCN(Cc2ccc(Nc3nccc(-c4sc(NC5CCCC5)nc4C)n3)nc2)CC1
A) 6.38

Q) Assign pKi to the following record: CCN1CCN(Cc2ccc(Nc3ncc(F)c(-c4sc(NC5CCCC5)nc4C)n3)nc2)CC1
A) 6.21

Q) Assign pKi to the following record: Cc1nc(NC2CCCC2)sc1-c1nc(Nc2ccc(N3CCOCC3)cn2)ncc1F
A) 6.98

Q) Assign pKi to the following record: CCN1CCN(c2ccc(Nc3nccc(-c4sc(NC5CCCC5)nc4C)n3)nc2)CC1
A) 6.45
